Tested on: MT4
Assay: Concentration of compound required to reduce MT-4 cells viability by 50%.
Format: functional
Settings: Homo sapiens
recorded_endpoint: CC50 (µM)
One number for each entry, in µM.

molecule | CC50 [µM]
[C-]#[N+]C[C@H]1OC(n2cc(C)c(=O)[nH]c2=O)C[C@H]1O (stereo not given in full) | 144
[C-]#[N+]C[C@H]1OC(n2ccc(=O)[nH]c2=O)C[C@H]1O (stereo not given in full) | 125

Would you mind listing CC50 for each of the following molecules?
1. [C-]#[N+]C[C@H]1OC(n2cc(C)c(=O)[nH]c2=O)C[C@H]1N=[N+]=[N-] (stereo not given in full)
2. [C-]#[N+]C[C@H]1OC(n2ccc(=O)[nH]c2=O)C[C@H]1N=[N+]=[N-] (stereo not given in full)
3. Cc1cn([C@H]2C[C@H](N=[N+]=[N-])[C@@H](CO)O2)c(=O)[nH]c1=O [ZIDOVUDINE]

Solution:
122
104
20
